Tested on: RIOK3;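 further: KINOMEscan kinase panel screen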
EXPERIMENTAL_PARAMETERS: concentration: 1 μM,replicates: in singlicate; n = 1
Class membership depends on %Inh alone; the intervals are low bracket = under 6%, middle bracket = from 6% up to 30%, high bracket = 30% and over

# COMPOUND, ASSAY_SYSTEM, CLASSIFICATION
rows = [
    ("CC(=O)Nc1ccc(-c2cc3ncnc(SCC(=O)O)c3s2)cc1", "RIOK3", "middle bracket"),
    ("O=C(Nc1cccc(Oc2ccc3nccn3n2)c1)Nc1cccc(C(F)(F)F)c1", "RIOK3", "low bracket"),
    ("O=C(Nc1ccc(Oc2ccc3nc(NC(=O)C4CC4)cn3n2)c(F)c1)c1cccn(-c2ccccc2)c1=O", "RIOK3", "high bracket"),
    ("O=C(Nc1cccc(C(F)(F)F)c1)c1cccc(Oc2ccc3nccn3n2)c1", "RIOK3", "middle bracket"),
    ("COc1cc2ncn(-c3cc(OCC4CCCCC4)c(C(N)=O)s3)c2cc1OC", "RIOK3", "high bracket"),
    ("CN1CCN(CCNc2nc3cc(Oc4ccc(NC(=O)Nc5cc(C(F)(F)F)ccc5F)cc4)ccc3[nH]2)CC1.Cl.Cl", "RIOK3", "middle bracket"),
    ("COc1cccc(OC)c1C(=O)Nc1cccc(-c2nn3ccccc3c2-c2ccnc(Nc3cccc(F)c3)n2)c1", "RIOK3", "middle bracket"),
    ("Cc1cccc(-c2nc(Nc3ccncc3)c3sccc3n2)n1", "RIOK3", "middle bracket"),
    ("Nc1nccc(-c2ccc3c(N)n[nH]c3c2)n1", "RIOK3", "high bracket"),
    ("CN(c1ccccc1CNc1nc(Nc2ccc3c(c2)CC(=O)N3)ncc1C(F)(F)F)S(C)(=O)=O", "RIOK3", "high bracket"),
    ("Cc1cccc2c(-c3ccncc3)c(-c3ccc(F)cc3)nn12.Cl", "RIOK3", "low bracket"),
    ("Cn1ccc2ncnc(Oc3ccc(NC(=O)Nc4cccc(C(F)(F)F)c4)c(F)c3)c21", "RIOK3", "middle bracket"),
    ("C[C@@H]1CNc2c(sc3ccc4nc(-c5ccncc5)ccc4c23)C(=O)N1", "RIOK3", "low bracket"),
    ("C[C@@H](Oc1cc(-n2cnc3cc(-c4ccncc4)ccc32)sc1C(N)=O)c1ccccc1Cl", "RIOK3", "high bracket"),
    ("COc1cc(Nc2nccc(N3CCC(NC(=O)c4cccc(C#N)c4)C3)n2)cc(OC)c1OC (stereo not shown)", "RIOK3", "high bracket"),
    ("Cn1ccc2ncnc(Oc3ccc(NC(=O)Nc4cc(C(C)(C)C)on4)c(Cl)c3)c21", "RIOK3", "low bracket"),
    ("COc1cc2c(Nc3ccc(NC(=O)c4ccccc4)cc3)ncnc2cc1OCCCN1CCOCC1", "RIOK3", "middle bracket"),
    ("O=C(Nc1ccccc1)c1cccc(Oc2ccc3nccn3n2)c1", "RIOK3", "middle bracket"),
    ("NC(=O)Nc1sc(-c2ccc(F)cc2)cc1C(N)=O", "RIOK3", "high bracket"),
    ("CC(C)c1nc(-c2cccc(NS(=O)(=O)c3ccccc3)c2)c(-c2ccnc(Nc3ccc4c(c3)CN(C)CC4)n2)s1", "RIOK3", "middle bracket"),
    ("COc1cccc(C2=C(Nc3cccc(Cl)c3)C(=O)NC2=O)c1", "RIOK3", "low bracket"),
    ("C[C@@H]1CNc2c(sc3ccc4nc(-c5ccc(O)cc5)ccc4c23)C(=O)N1", "RIOK3", "low bracket"),
    ("Cc1nnc(-c2ccc3occ(-c4ccc(S(C)=O)cc4)c3n2)o1 (stereo not shown)", "RIOK3", "middle bracket"),
    ("CC(=O)Nc1nc2cnc(Nc3cc(NC(=O)c4cccc(CC(C)(C)C#N)c4)ccc3C)nc2s1", "RIOK3", "low bracket"),
    ("CCOC(=O)N1CCC(n2cnc(-c3ccc(F)cc3)c2-c2ccnc(N)n2)CC1", "RIOK3", "high bracket"),
    ("CS(=O)(=O)Nc1ccc(-c2ccnc3[nH]ccc23)cc1", "RIOK3", "high bracket"),
    ("C[C@@H](Oc1cc(-n2cnc3ccc(-c4ccncc4)cc32)sc1C(N)=O)c1ccccc1Cl", "RIOK3", "high bracket"),
    ("C[C@@H]1CCN(C(=O)N2CCCC2)C[C@@H]1N(C)c1ncnc2[nH]ccc12", "RIOK3", "low bracket"),
    ("Cl.c1ccc(Oc2ccc(Nc3ccnc4cc(-c5ccc(CN6CCNCC6)o5)ccc34)cc2)nc1", "RIOK3", "low bracket"),
    ("Cn1ccc2ncnc(Oc3ccc(NC(=O)Nc4cccc(C(F)(F)F)c4)c(Cl)c3)c21", "RIOK3", "high bracket"),
    ("CC(=O)c1c(-c2ccncc2)[nH]c(-c2ccncc2)c1C", "RIOK3", "low bracket"),
    ("CNC(=O)c1ccccc1Nc1nc(Nc2cccc(CS(C)(=O)=O)c2)ncc1C.O=CO", "RIOK3", "high bracket"),
]
